measurement_notes: self-splicing fitness, log relative to wild type (ln ratio); higher = more splicing; Tetrahymena group I intron in knt gene, E. coli kanamycin selection, DiMSum; sequences stand for … in CUCUCU…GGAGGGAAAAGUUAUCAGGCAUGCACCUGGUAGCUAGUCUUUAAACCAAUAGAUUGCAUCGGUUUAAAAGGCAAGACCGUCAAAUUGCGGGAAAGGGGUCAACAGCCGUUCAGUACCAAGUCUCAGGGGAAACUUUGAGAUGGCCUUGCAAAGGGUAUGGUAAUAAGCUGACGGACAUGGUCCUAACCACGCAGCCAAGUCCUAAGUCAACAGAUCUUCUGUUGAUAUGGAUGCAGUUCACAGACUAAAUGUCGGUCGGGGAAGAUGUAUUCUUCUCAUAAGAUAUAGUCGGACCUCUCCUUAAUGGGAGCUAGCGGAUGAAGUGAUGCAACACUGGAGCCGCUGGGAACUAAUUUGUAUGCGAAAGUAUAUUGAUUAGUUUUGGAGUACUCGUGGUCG;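 also: selection with 25 µg/mL kanamycin versus none on LB agar overnight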
condition_details: 30 °C
reported_metric: self-splicing fitness (ln)
API doc: respond with a numeric literal and nothing else, no unit.

query: For the sequence CCAUAGCAAUAUUACGCGAC , report self-splicing fitness (ln).
result: -3.56

query: For the sequence AUUUAGCAAUAUUACGCUUG , report self-splicing fitness (ln).
result: -0.566

query: For the sequence UGAGAGCAAUAUUACGGUGG , report self-splicing fitness (ln).
result: -3.4

query: For the sequence CGGAAGCAAUAUUACGGCGU , report self-splicing fitness (ln).
result: -1.96

query: For the sequence GAUCAGCAAUAUUACGUACA , report self-splicing fitness (ln).
result: -0.607

query: For the sequence CAUUAGCAAUAUUACGCUGC , report self-splicing fitness (ln).
result: -3.92

query: For the sequence AUAGAGCAAUAUUACGCACU , report self-splicing fitness (ln).
result: -0.797
